Assay: self-splicing fitness, log relative to wild type (ln ratio); higher = more splicing; Tetrahymena group I intron in knt gene, E. coli kanamycin selection, DiMSum; sequences stand for … in CUCUCU…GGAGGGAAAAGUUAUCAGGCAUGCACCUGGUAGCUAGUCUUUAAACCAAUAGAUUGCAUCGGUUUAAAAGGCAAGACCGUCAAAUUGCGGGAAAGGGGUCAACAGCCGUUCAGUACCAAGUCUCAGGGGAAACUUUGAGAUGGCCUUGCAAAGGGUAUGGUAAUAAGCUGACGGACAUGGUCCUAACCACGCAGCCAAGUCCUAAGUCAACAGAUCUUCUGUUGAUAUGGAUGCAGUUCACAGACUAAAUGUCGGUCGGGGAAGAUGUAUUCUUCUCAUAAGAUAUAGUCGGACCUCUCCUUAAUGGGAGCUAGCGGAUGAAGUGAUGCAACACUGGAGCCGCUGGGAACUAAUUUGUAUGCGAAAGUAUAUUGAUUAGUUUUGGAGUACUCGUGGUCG;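 note: selection with 25 µg/mL kanamycin versus none on LB agar overnight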
Details: 37 °C
Quick rule: self-splicing fitness (ln) of at least -1 means TRUE, below that means FALSE.

Biopolymer Sequence	Discrete Label
GUACAGCAAUAUUACGAACC	TRUE
UGACAGCAAUAUUACGACUA	TRUE
CUGAAGCAAUAUUACGCUUU	FALSE
UACCAGCAAUAUUACGCAAC	FALSE
AAGCAGCAAUAUUACGUGCA	TRUE
AUCUAGCAAUAUUACGCAGG	FALSE
ACUUAGCAAUAUUACGUCUG	TRUE
GAGGAGCAAUAUUACGUACA	TRUE
UAAGAGCAAUAUUACGCUCG	TRUE
UUGAAGCAAUAUUACGACCG	TRUE

Asked: Form field: self-splicing fitness (ln) at least -1? Entry: GCCCAGCAAUAUUACGGUUG
Given back: FALSE

* * *

Field: self-splicing fitness (ln). Provide a value for each of the sequences that follow.
Assay: self-splicing fitness, log relative to wild type (ln ratio); higher = more splicing; Tetrahymena group I intron in knt gene, E. coli kanamycin selection, DiMSum; sequences stand for … in CUCUCU…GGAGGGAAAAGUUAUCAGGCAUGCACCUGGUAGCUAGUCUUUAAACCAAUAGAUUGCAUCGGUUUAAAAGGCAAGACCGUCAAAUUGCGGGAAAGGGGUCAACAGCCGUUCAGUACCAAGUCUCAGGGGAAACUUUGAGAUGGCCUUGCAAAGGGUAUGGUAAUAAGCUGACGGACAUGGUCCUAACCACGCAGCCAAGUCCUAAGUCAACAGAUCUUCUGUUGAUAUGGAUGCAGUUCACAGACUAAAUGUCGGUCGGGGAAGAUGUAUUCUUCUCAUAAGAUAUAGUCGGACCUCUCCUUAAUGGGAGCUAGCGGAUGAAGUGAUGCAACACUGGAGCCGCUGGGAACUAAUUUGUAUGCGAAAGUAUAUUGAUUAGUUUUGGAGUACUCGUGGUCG
Conditions: 30 °C
Give bare numbers.

Worked cases, answers included:
Biopolymer Sequence	Readout Number
CCGUAGCAAUAUUACGAGAG	-3.86
AAUGAGCAAUAUUACGUACA	-2.3
UCCAAGCAAUAUUACGGGGU	-2.76

Report self-splicing fitness (ln) for every entry below.
1. AUUAAGCAAUAUUACGGGCU
2. GCAGAGCAAUAUUACGGGCG
3. CGUGAGCAAUAUUACGAGAG

Given back:
-1.31
-3.2
-2.29

Give self-splicing fitness (ln) for each of the items listed below.
1. GGUUAGCAAUAUUACGCAAA
2. UUUUAGCAAUAUUACGGACU
3. ACUAAGCAAUAUUACGGGAU
4. AAGUAGCAAUAUUACGAUUA
5. GCGUAGCAAUAUUACGUUUU

Given back:
1: -1.62; 2: -2.67; 3: -2.17; 4: -0.56; 5: -3.15

Quick one: give me self-splicing fitness (ln) for each item below, same order please.
1. CAGAAGCAAUAUUACGGGCU
2. UUCGAGCAAUAUUACGCCAA

Given back:
1. -3.96
2. -2.89

For every item below, please supply its self-splicing fitness (ln).
1. ACUGAGCAAUAUUACGGAAU
2. GUCGAGCAAUAUUACGGCUA
3. CAAAAGCAAUAUUACGAAUU
4. AAUUAGCAAUAUUACGGCAG
5. GACCAGCAAUAUUACGAUCC
6. AUCGAGCAAUAUUACGCAAU
7. GUUGAGCAAUAUUACGCAUU

Given back:
1. -3.39
2. -1.78
3. -3.52
4. -0.691
5. -1.93
6. -2.08
7. -2.68
